Target: Kir3.1/Kir3.2 (Homo sapiens) (UniProt P48549+P48051)
Test: Activation of human GIRK1/2 expressed in HEK293 cells co-expressing rat mGlu8 by thallium flux assay relative to control
Type: cell-based
Activity calls are given as the source filed them. No cut-off for these calls is given here.
metric name: Emax

Illustrative cases are given below, each with its answer.
INSERT INTO results (compound, measurement) VALUES
  ('Cc1nc(-c2ccccc2)c(NC(=O)Cn2nnc(-c3ccccc3)n2)s1', 'inactive'),
  ('Cc1cc(NC(=O)Cn2nnc(-c3ccccc3)n2)n(C2CCC(C)(C)CC2)n1', '> 19%'),
  ('CC1CC1c1cc(NC(=O)Cn2nnc(-c3ccccc3)n2)n(C2CCCCC2)n1 (stereo unspecified)', '78%'),
  ('Cc1cc(NC(=O)Cn2nnc(-c3ccccc3)n2)n(C2CCS(=O)(=O)CC2)n1', '> 25%'),
  ('Cc1cc(NC(=O)Cn2ccc(-c3ccccc3)n2)n(C2CCCCC2)n1', '88%'),
  ('Cc1cc(NC(=O)Cn2cc(-c3ccccc3)cn2)n(C2CCCCC2)n1', '72%');

Working through the 8 compounds below one at a time, give Emax for each.
1. Cc1cc(NC(=O)Cn2nnc(-c3ccc(F)c(F)c3)n2)n(C2CCCCC2)n1
2. Cc1cc(NC(=O)Cn2nnc(-c3ccc(Cl)c(C)c3)n2)n(C2CCCCC2)n1
3. Cc1cc(NC(=O)Cc2ccc(-c3ccc(Cl)c(Cl)c3)cc2)n(C2CCCCC2)n1
4. Cc1cc(NC(=O)Cn2nnc(-c3ccccc3)n2)n(CC(F)(F)F)n1
5. Cc1cc(NC(=O)Cn2cc(-c3ccccc3)nn2)n(C2CCCCC2)n1
6. Cc1cc(NC(=O)Cn2nnc(-c3ccccc3)n2)n(-c2ccccc2)n1
7. Cc1cc(NC(=O)Cn2nnc(-c3ccccc3)n2)n(C2CC2)n1
8. O=C(Cn1nnc(-c2ccccc2)n1)Nc1ccccn1

// result
93%
89%
49%
> 105%
87%
66%
> 78%
inactive

Working through the 2 compounds below one at a time, give Emax for each.
1. Cc1cc(NC(=O)Cn2nnc(-c3ccccn3)n2)n(C2CCCCC2)n1
2. Cc1cc(NC(=O)Cn2nnc(-c3ccccc3F)n2)n(C2CCCCC2)n1

// result
81%
88%

Working through the 4 compounds below one at a time, give Emax for each.
1. Cc1cc(NC(=O)Cn2nnc(-c3ccccc3)n2)n(C2CCCC2)n1
2. Cc1ccc(-c2nnn(CC(=O)Nc3cc(C)nn3C3CCCCC3)n2)cc1
3. COc1cccc(-c2nnn(CC(=O)Nc3cc(C)nn3C3CCCCC3)n2)c1
4. Cc1cc(NC(=O)Cc2ccc(-c3ccccc3)cc2)n(C2CCCCC2)n1

// result
1. 105%
2. 86%
3. 76%
4. 69%

// query Tell me Emax reported for "Cc1cc(NC(=O)Cn2nnc(-c3ccccc3)n2)n(C2CCCCC2)n1"
// result 92%
